# System: M. tuberculosis H37Rv growth inhibition
# method: M. tuberculosis H37Rv growth inhibitors, H37Rv strain (AID 1626)
# conditions-used: measured here: IC90 against H37Rv
What IC90 was measured for each of the following?
Respond with the bare value in µM.

In: Tell me the measured IC90 of `COC(=O)CSc1ccc(-c2nc3ccc(C)cc3[nH]2)cn1` , please.
Out: 3.39

In: Tell me the measured IC90 of `COc1cc(NC(=O)c2ccc(Cl)cc2)c(OC)cc1NC(=O)CN1CCCCC1` , please.
Out: 16.9

In: Tell me the measured IC90 of Cc1ccc(Cc2cnc(N3C(=N)SC(C)C3=O)s2)cc1 (stereo unspecified) , please.
Out: 18.1

In: Tell me the measured IC90 of CCOC(=O)C(C(=O)OCC)C1N=C(N)N=C2Oc3ccccc3N21 (stereo unspecified) , please.
Out: 36.7

---

What IC50 was measured for each of the following?
# Test system: M. tuberculosis H37Rv growth inhibition
# method: M. tuberculosis H37Rv growth inhibitors, H37Rv strain (AID 1626)

In: Tell me the measured IC50 of `Cc1cccc(-c2nsc(SCC(=O)NCc3ccc4c(c3)OCO4)n2)c1` , please.
Out: 7.57 µM

In: Tell me the measured IC50 of `Cc1ccc(CNCc2cc3c(C(C)(C)C)nn(-c4ccccc4)c3[nH]c2=O)cc1` , please.
Out: 8.33 µM

In: Tell me the measured IC50 of C/C(=N\N=C(/N)SC1CC(=O)N(c2ccc(Br)cc2)C1=O)c1cccs1 (stereo unspecified) , please.
Out: 9.24 µM

In: Tell me the measured IC50 of CCOC(=O)C(Cc1ccccc1)C(=O)Nc1cccc2ccccc12 (stereo unspecified) , please.
Out: 4 µM

In: Tell me the measured IC50 of `COC(=O)CCn1c(C)cc(C(=O)COc2ccccc2C(N)=O)c1C` , please.
Out: 1.57 µM

In: Tell me the measured IC50 of `Cc1ccccc1NC(=O)c1ccc(OCC(=O)Nc2ccccc2F)cc1` , please.
Out: 76 µM

In: Tell me the measured IC50 of `c1ccc(-c2nc(N3CCCCCC3)c3ccccc3n2)nc1` , please.
Out: 0.304 µM

In: Tell me the measured IC50 of `O=C(O)c1ccc(-c2nc(-c3ccc(Cl)cc3)cs2)cc1` , please.
Out: 88.6 µM

In: Tell me the measured IC50 of `CCc1ccc(NC(=O)c2cnc(N3CCN(c4ccccn4)CC3)c3ccccc23)cc1` , please.
Out: 0.444 µM

In: Tell me the measured IC50 of `COc1cccc2sc(Nc3nc(-c4ccccn4)cs3)nc12` , please.
Out: < 0.195 µM

In: Tell me the measured IC50 of `Nc1cnc(-c2ccccc2)nc1Cl` , please.
Out: 7.27 µM

---

# Tested on: M. tuberculosis H37Rv growth inhibition
# method: M. tuberculosis H37Rv growth inhibitors, H37Rv strain (AID 1626)
# conditions-used: measured here: IC90 against H37Rv
reported-property: IC90 (µM)
Respond with the bare value in µM.

In: Tell me the measured IC90 of `COC(=O)c1c(C)oc2ccc(OC(=O)c3cccs3)cc12` , please.
Out: 17.8

In: Tell me the measured IC90 of `COc1cccc(C(=O)Nc2nc(-c3ccccc3)c(-c3ccccc3)o2)c1` , please.
Out: 6.62

In: Tell me the measured IC90 of `Cc1cc(Cl)n2c(nc3cc(F)c(F)cc32)c1C#N` , please.
Out: 10.5

In: Tell me the measured IC90 of OC(CNCCc1ccc(C(F)(F)F)cc1)COc1cccc2ccccc12 (stereo not given) , please.
Out: 6.42

In: Tell me the measured IC90 of `CSc1nc(-c2ccccc2)nc(C(Cl)Cl)n1` , please.
Out: 2.04

In: Tell me the measured IC90 of COc1cccc(CC2(CO)CCCN(Cc3[nH]c4ccc(C)cc4c3C)C2)c1 (stereo not given) , please.
Out: 11.2

In: Tell me the measured IC90 of `COC(=O)COc1cccc(NC(=O)COc2ccccc2)c1` , please.
Out: 4

In: Tell me the measured IC90 of `Cc1cc(Cl)cc(C)c1OCCCCn1ccnc1` , please.
Out: 12.7

In: Tell me the measured IC90 of `Cc1cccc(N=C2NN=C(c3c(C)[nH]c4ccccc34)CS2)c1` , please.
Out: 16.3

In: Tell me the measured IC90 of `C=CCn1c(SCc2ccc(C(=O)Nc3nccs3)cc2)nnc1-c1ccc(C)c(Cl)c1` , please.
Out: 17.6

In: Tell me the measured IC90 of `O=C(Nc1ccc(F)cc1F)Nc1csc2ccccc12` , please.
Out: 52.7

In: Tell me the measured IC90 of `Cc1cccc(OCCCCc2c(C)n[nH]c2C)c1C` , please.
Out: 3.87

In: Tell me the measured IC90 of c1ccc(C2[C@H]3CN(CC4CCCCC4)[C@H](c4ccccc4)C34CC2(c2cccnc2)C4)cc1 (stereo not given in full) , please.
Out: 23.4

In: Tell me the measured IC90 of `c1ccc(-c2nc(NCCCn3ccnc3)c3ccccc3n2)cc1` , please.
Out: 8.05

In: Tell me the measured IC90 of `CSc1ccc(/C=C/C(=O)c2ccc(O)cc2)cc1` , please.
Out: 13.7

In: Tell me the measured IC90 of `Cc1cccc(/C=c2\s/c(=C\C(=O)C(C)(C)C)[nH]c2=O)c1` , please.
Out: 11.6

In: Tell me the measured IC90 of `CCn1c(=O)c(C(=O)Nc2nc3ccccc3[nH]2)c(O)c2ccccc21` , please.
Out: 0.423

In: Tell me the measured IC90 of `O=C(Nc1ccc(-c2csc(Nc3cccc(C(F)(F)F)c3)n2)cc1)c1cccc(C(F)(F)F)c1` , please.
Out: 1.53

In: Tell me the measured IC90 of `O=C(CCl)N(c1ccccc1)c1ccccc1` , please.
Out: 17.6

---

# System: M. tuberculosis H37Rv growth inhibition
# method: M. tuberculosis H37Rv growth inhibitors, H37Rv strain (AID 1626)
# conditions-used: measured here: Vero cell cytotoxicity
reported-property: CC50 (µM)
Respond with the bare value in µM.

In: Tell me the measured CC50 of CC(C)N1CCC2(CC1)N=C(c1ccc3c(c1)OCO3)CC(c1cc(Cl)ccc1O)N2 (stereo not given) , please.
Out: 12.5

In: Tell me the measured CC50 of `O=C(Oc1c(Cl)cc(Cl)c2cccnc12)c1ccco1` , please.
Out: 10

---

What CC50 was measured for each of the following?
# Test system: M. tuberculosis H37Rv growth inhibition
# method: M. tuberculosis H37Rv growth inhibitors, H37Rv strain (AID 1626)
# conditions-used: measured here: Vero cell cytotoxicity

In: Tell me the measured CC50 of `Cc1ccc(S(=O)(=O)NCCC(=O)Nc2ccc(C)c(Cl)c2)cc1C` , please.
Out: > 40 µM

In: Tell me the measured CC50 of `O=C(COc1ccc(Cl)cc1)Nc1nnc(-c2ccc3c(c2)CCCC3)o1` , please.
Out: > 40 µM

In: Tell me the measured CC50 of `O=C(CN1CCC(C(=O)c2ccc3c(c2)OCCO3)CC1)NC1CCCC1` , please.
Out: > 40 µM

In: Tell me the measured CC50 of `CCN(CC)CCn1c(NC(=O)c2ccc(C(F)(F)F)cc2)nc2ccccc21` , please.
Out: > 40 µM

In: Tell me the measured CC50 of `O=C(Nc1nc(-c2ccc(-c3ccccc3)cc2)cs1)c1cnccn1` , please.
Out: > 40 µM

In: Tell me the measured CC50 of `Cc1ccc(SC/C(O)=C(\C#N)c2nc3ccccc3n2C)cc1` , please.
Out: > 40 µM

In: Tell me the measured CC50 of `O=c1cc(N=Nc2ccc(Cl)cc2)[nH]c(=O)[nH]1` , please.
Out: 7.51 µM

In: Tell me the measured CC50 of `O=c1c2ccccc2nc(-c2ccc(Cl)c(Cl)c2)n1O` , please.
Out: > 40 µM

In: Tell me the measured CC50 of `CC(=O)/C=C(\C)Nc1ccccc1O` , please.
Out: > 40 µM

In: Tell me the measured CC50 of `CCCNC1=C(N(C(C)=O)c2cccc(F)c2)C(=O)c2ccccc2C1=O` , please.
Out: 29.9 µM

In: Tell me the measured CC50 of `O=C(Nc1ccc(N2CCCCC2)c(Cl)c1)c1ccc(N2CCOCC2)c([N+](=O)[O-])c1` , please.
Out: 30 µM

---

What IC90 was measured for each of the following?
# Tested on: M. tuberculosis H37Rv growth inhibition
# method: M. tuberculosis H37Rv growth inhibitors, H37Rv strain (AID 1626)
# conditions-used: measured here: IC90 against H37Rv
Respond with the bare value in µM.

In: Tell me the measured IC90 of `O=C(Nc1ccccc1OC(=O)c1ccc(Cl)cc1)c1ccc(Cl)cc1` , please.
Out: 18.6

In: Tell me the measured IC90 of `CCn1cc(C(=O)O)c(=O)c2cc(F)c(N3CCNCC3)cc21` , please.
Out: 3.11

In: Tell me the measured IC90 of `CCC(=O)Nc1nc2ccccc2n1Cc1ccc(C)cc1` , please.
Out: 11

In: Tell me the measured IC90 of `COC(=O)CSc1nc2ccccc2nc1SCC(=O)OC` , please.
Out: 12.5

In: Tell me the measured IC90 of `O=C1C(NS(=O)(=O)c2cccs2)=C(N2CCN(c3cccc(C(F)(F)F)c3)CC2)C(=O)c2ccccc21` , please.
Out: 7.38
